- Test system: SNB-75
- PROTOCOL_TEXT: NCI tumour cell line growth inhibition, 48 h
The source made the active and inactive calls. Cut-off read from the data, not from the text of the source: active = GI50 up to about 1.1 µM and inactive = higher.
EXPERIMENTAL_READOUT: GI50

For CC(C)(C)c1ccc(OCCOc2ccc(C(C)(C)C)cc2N)c(N)c1 , what is its reported GI50?
47.8 µM (inactive)

For COCN1C(=O)[C@@H]2CCCN2C(=O)c2cc(OC)c(Cc3ccccc3)cc21 , what is its reported GI50?
60.4 µM (inactive)

For COc1ccc(-c2nc(-c3cc4c(ccc5ccccc54)oc3=O)cs2)cc1 , what is its reported GI50?
66.5 µM (inactive)

For CC(=O)Nc1ccc(Nc2nc(=O)[nH]c(=O)[nH]2)cc1 , what is its reported GI50?
> 100 µM (inactive)

---

Below: a set of entries, each annotated with reported GI50.
- System: A498
- PROTOCOL_TEXT: NCI tumour cell line growth inhibition, 48 h
Calls of active or inactive are those of the source. No stated cut-off is given here; in the data, active = GI50 up to about 1.1 µM and inactive = higher.

Examples from the recorded data:
• CC(C)C(N)C(=O)NC(CCC(=O)NCCCCC(N)C(=O)NCCCNc1ccc([N+](=O)[O-])c2[nH]c3ccccc3c(=O)c12)C(N)=O (stereo not given) = 59 µM (inactive)
• CCOC(=O)NN1C(=O)C(=P(c2ccccc2)(c2ccccc2)c2ccccc2)C(C(=O)OCC)=C1C = > 100 µM (inactive)
• Nc1ccc(/C=C/c2ccc3cccnc3c2)cc1 = > 100 µM (inactive)
• C/C(=N\N=C(/S)SCc1ccccc1)c1ccccn1 = 1.41 µM (inactive)
• COc1ccc(NC(C)=O)c(C(=O)CCNC(C)=O)c1 = > 100 µM (inactive)

For CCCN(CCC)C(=S)N/N=C/c1ccccn1 , what is its reported GI50?
0.0372 µM (active)

---

- System: 786-0
- PROTOCOL_TEXT: NCI tumour cell line growth inhibition, 48 h
The source made the active and inactive calls. No stated cut-off is given here; in the data, active = GI50 up to about 1.1 µM and inactive = higher.
The reply should name one outcome from active, inactive

Would you please look over these solved cases?
• COc1c(O)cc(O)c2c(=O)cc(-c3ccccc3)oc12 = inactive
• COc1ccc(C(=O)C(c2ccc(OC)cc2)C2C(=O)Oc3ccccc32)cc1 (configuration not stated) = inactive
• CN(C)CCc1ccc(Cl)cc1Cl = inactive
• CC(=O)Nc1ccc(Nc2nc(=O)[nH]c(=O)[nH]2)cc1 = inactive
• Cc1cn(C2CC(/[N+]([O-])=N\Nc3ccc([N+](=O)[O-])cc3)C(CO)O2)c(=O)[nH]c1=O (configuration not stated) = inactive
• COc1cccc2cc(C(=O)NC34CC5CC(CC(C5)C3)C4)c(=N)oc12 = inactive

Please share the test call associated with O=C(O)c1ccc(C2=Nc3cccc4cccc(c34)N2)cc1 .
inactive

Please share the test call associated with N/C(=N\Nc1nc2cc([N+](=O)[O-])ccc2o1)c1ccccn1 .
active

Please share the test call associated with O=C(O)CCNCCCNCCC(=O)O .
inactive

---

- System: K562
- PROTOCOL_TEXT: NCI tumour cell line growth inhibition, 48 h
Active and inactive are the calls of the source. No stated cut-off is given here; in the data, active = GI50 up to about 1.1 µM and inactive = higher.
The reply should name one outcome from active, inactive

• CSc1nc2c(nc(N)n2C2OCC(O)C(O)C2O)c(=O)n1C (stereo unspecified) = inactive
• CCC12CCCNC1c1c(n(C)c3ccccc13)C(C(=O)OC)C2 (stereo unspecified) = inactive

Please share the test call associated with COC(=O)c1cc2/c(=N/O)c3ccccc3sc2o1 .
inactive

Please share the test call associated with CN(C)CCCN1c2ccc([N+](=O)[O-])cc2CCc2cc([N+](=O)[O-])ccc21 .
inactive

Please share the test call associated with CCOC(=O)c1ccc(C(=O)C(C(C)=O)C(=O)OC(C)(C)C)n1C (stereo unspecified) .
inactive

Please share the test call associated with COc1cc2c(cc1OC)C(=O)/C(=C/c1cc(C)c(O)c(C)c1)C2 .
active

Please share the test call associated with Cc1cc(C#N)c(Nc2c(C)cccc2[N+](=O)[O-])s1 .
inactive
